Can you tell me EC50 for the items I'm about to list?
Biological target: T1, Human PD-1 (Swiss-Prot entry Q15116), full length, on cells (human, UniProt Q15116 21-288)
T1 construct: Full length open reading frame of hPD-1 stably expressed on CHO-K1 cells; also endogenous PD-1 on CD3/CD28-stimulated human CD3+ T cells and PD-1 on transfected Jurkat cells; also called hPD-1; hPDCD1
T1 sequence (Q15116 21-288, one chain of several): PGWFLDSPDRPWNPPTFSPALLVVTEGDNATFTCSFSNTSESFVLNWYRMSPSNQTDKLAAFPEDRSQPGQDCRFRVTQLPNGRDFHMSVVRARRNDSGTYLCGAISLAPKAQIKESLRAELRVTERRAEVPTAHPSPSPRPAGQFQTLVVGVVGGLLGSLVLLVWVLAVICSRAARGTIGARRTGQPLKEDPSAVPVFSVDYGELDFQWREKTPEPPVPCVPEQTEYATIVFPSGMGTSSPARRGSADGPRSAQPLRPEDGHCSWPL
Assay: CELISA on CHO-K1.hPDCD1 cells
Protocol: To further characterize these mutant hPD-1 antibodies they were tested for binding to hPD-1 in CELISA format using CHO-K1 cells (American Type Culture Collection, Manassas, Va.), stably transfected with cDNA encoding the full length open reading frame of hPDCD1 (hPD-1), subcloned into the pCI-neo vector (Promega). […] Reactions were stopped with 100 al 0.5 M H2SO4 and absorbances were read at 450 and 610 nm. […] Reactions were stopped with 100 al 0.5 M H2SO4 and absorbances were read at 450 and 610 nm. […]
Report as a plain number; the unit nM is understood.

Looking for the measured EC50 of hPD1.29H5_K12V_I28T_T31S_L4 (antibody, V domains shown, Mutant of hPD1.29H5L4 (human IgG4 S241P kappa format of the parent)) VH: EVQLVQSGAEVVKPGASVKVSCKASGYTFTSYYIHWVKQAPGKGLEWIGWIFPGDVSTQYNEKFQDKATITVDKSASTAYMQLSSLRSEDTAVYYCTREAYDYAVYWGQGTLVTVSS VL: DIQMTQAPSSLSASVGDRVTITCKASQNVDTNVAWFQQKPGKAPKSLIFSASYRYSGVPSRFSGSGSGTDFTLTISSLQPEDFATYYCQQYNNYPFTFGGGTKLEIK , can you help?
0.3

Repeat with hPD1.29H5L4 (antibody, V domains shown, Expressed as human IgG4, kappa with the stabilizing S241P (Kabat) hinge mutation in HEK293 cells; also called humanized PD-1 antibody hPD1.29H5L4) VH: EVQLVQSGAEVKKPGASVKVSCKASGYIFTTYYIHWVKQAPGKGLEWIGWIFPGDVSTQYNEKFQDKATITVDKSASTAYMQLSSLRSEDTAVYYCTREAYDYAVYWGQGTLVTVSS VL: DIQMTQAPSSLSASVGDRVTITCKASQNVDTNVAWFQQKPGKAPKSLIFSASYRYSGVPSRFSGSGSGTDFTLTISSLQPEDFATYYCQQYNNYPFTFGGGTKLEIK
0.3
